- tested_target: Cytochrome P450 2D6 (Homo sapiens)
- assay_details: Cytochrome panel assay with activity outcomes
- condition_parameters: recombinant CYP, pro-luciferin dealkylation, luminescence, p450-cyp2d6; series mostly up to 57.1 µM
The campaign covered roughly 16,000 compounds. About 2,600 (16%) were called active. Another 20% or so got no clear call; they are omitted. Calls follow the shape of the dose curve; as a rule, active = well fitted curve in the direction sought with a large enough effect; inconclusive = small, poorly fitted or top-dose-only effect, or effect the other way; inactive = no such curve, though single readings can be large or run the other way. A selection follows.
Reply using exactly one outcome from active, inactive

What outcome does the record of this test show for N#Cc1c(N)nc2c(c1-c1cccc(O)c1)CCCCCC2 ?
inactive

Can you check CSc1ccc(CNc2ccc(Cl)cc2)cc1 next?
inactive

// next record CCCn1c(C)nc2c(c1=O)c1nc3ccccc3nc1n2CCC1=CCCCC1
inactive

What do you get for O=C(Cc1ncc(C(F)(F)F)cc1Cl)Nc1cccc(Br)c1 ?
active

* * *

- tested_target: Cytochrome P450 2D6 (Homo sapiens) (UniProt P10635)
- Sequence (P10635 whole entry, looked up): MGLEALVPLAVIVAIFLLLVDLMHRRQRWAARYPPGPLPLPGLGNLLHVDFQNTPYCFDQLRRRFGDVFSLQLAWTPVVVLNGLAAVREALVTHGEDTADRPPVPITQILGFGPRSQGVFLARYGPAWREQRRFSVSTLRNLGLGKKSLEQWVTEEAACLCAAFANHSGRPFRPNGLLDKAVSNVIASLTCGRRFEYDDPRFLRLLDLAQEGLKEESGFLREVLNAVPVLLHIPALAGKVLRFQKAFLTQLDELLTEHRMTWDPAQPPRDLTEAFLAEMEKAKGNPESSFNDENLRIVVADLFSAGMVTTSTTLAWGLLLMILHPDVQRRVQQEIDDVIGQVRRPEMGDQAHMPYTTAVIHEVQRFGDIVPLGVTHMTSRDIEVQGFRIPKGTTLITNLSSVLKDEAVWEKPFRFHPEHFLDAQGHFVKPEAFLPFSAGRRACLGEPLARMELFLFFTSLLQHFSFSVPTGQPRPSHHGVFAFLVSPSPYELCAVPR
- assay_details: Cytochrome panel assay with activity outcomes; as to activity, negative = inhibition: % is scaled to controls: 0 for no effect and ±100 for the full control effect
- condition_parameters: recombinant CYP, pro-luciferin dealkylation, luminescence, p450-cyp2d6; series mostly up to 57.1 µM
Among all 16,000 compounds or so, about 2,600 (16%) were called active. Another 20% or so got no clear call; they are omitted. The list is a sample of the results.
metric_name: activity, negative = inhibition

// activity, negative = inhibition lookup, key: CC(C)(C)N1C(=O)[C@H]2[C@@H]3[C@H](O)C=CC(=O)[C@H]3CC[C@H]2C1=O
7.58% [at 11.4 µM] (inactive)

// same read-out, input: OC[C@@H]1O[C@@H](N2CCN([C@@H]3O[C@@H](CO)[C@@H](O)[C@H](O)[C@H]3O)CC2)[C@@H](O)[C@H](O)[C@H]1O
-3.98% [at 11.4 µM] (inactive)

Now consider Clc1ccccc1C(Nc1cnccn1)Nc1cnccn1 .
10.1% [at 11.4 µM] (inactive)

Now the compound COc1ccc2nc(NCN3C(=O)c4ccccc4C3=O)sc2c1
-19.6% [at 11.4 µM] (inactive)

Lookup O=C(O)c1ccccc1-c1ccccc1C(=O)Nc1ccc2c(c1)Cc1ccccc1-2
8.94% [at 11.4 µM] (inactive)

Another compound to check: O=c1ccc(-c2ccccc2)n[nH]1
2.58% [at 11.4 µM] (inactive)

Next up: Cc1c(C(=O)O)nc(/C=C\C(=O)O)[nH]c1=O
6.81% [at 11.4 µM] (inactive)

Proceed to O=C(O)C[C@H]1OCC=C2C[N@@+]3([O-])CC[C@]45c6ccccc6N[C@@H]4[C@@H]1[C@H]2C[C@H]53
9.02% [at 11.4 µM] (inactive)

* * *

- tested_target: Cytochrome P450 2D6 (Homo sapiens)
- assay_details: Cytochrome panel assay with activity outcomes
- condition_parameters: recombinant CYP, pro-luciferin dealkylation, luminescence, p450-cyp2d6; series mostly up to 57.1 µM
Out of some 16,000 compounds screened, about 2,600 (16%) were called active. Not shown: some 20% with an inconclusive outcome. Calls follow the shape of the dose curve; as a rule, active = well fitted curve in the direction sought with a large enough effect; inconclusive = small, poorly fitted or top-dose-only effect, or effect the other way; inactive = no such curve, though single readings can be large or run the other way. A selection follows.
Pick from 1 = active, -1 = inactive when you respond.

How was O=C(Nc1ncc(Cc2cc(Cl)ccc2Cl)s1)c1ccc([N+](=O)[O-])cc1 classified in this test?
-1

Try this molecule next: CC1CC(C)CN(C/C=C/c2ccccc2[N+](=O)[O-])C1 (configuration not stated)
1

N#Cc1cccc(NC(=O)N2CCCC3(CCN(C(=O)c4ccco4)CC3)C2)c1 , same question.
-1

Cc1cc(C)n(CC(O)COc2ccccc2)n1 (configuration not stated) , same question.
-1

Also COC(=O)c1cc2c(ccn2-c2ccc(F)cc2)n1C(C)C , if possible.
-1

Same lookup for CC(=O)c1cc(C)ccc1OC(=O)CCN1C(=O)C2C3c4ccccc4C(c4ccccc43)C2C1=O (configuration not stated) , please.
-1

// same read-out, input: Cc1ccc(NC(=O)c2ccc(NCC3CCCO3)c([N+](=O)[O-])c2)cc1Cl (configuration not stated)
-1

Repeat for the following molecule: Cn1c(Cc2cccc3ccccc23)nnc1SCC(=O)N1CCN(c2ccccc2)CC1
-1

What do you get for N#Cc1ccc(CN2CCCC3(CCN(C(=O)c4ccncc4)CC3)C2)cc1 ?
-1

One more molecule: COc1ccc2[nH]cc(CCNc3ccnc(-c4cccc(NS(C)(=O)=O)c4)n3)c2c1
1

Next record, please: Cc1ccc(-n2c(SCC(=O)NCc3ccco3)nc3sc4c(c3c2=O)CC(C)(C)SC4)cc1
1

// next record O=C(c1ccncc1)N1CCC2(CCCN(Cc3ccncc3)C2)CC1
1

Try this molecule next: O=C(c1cccc(F)c1)N1CCC2(CCCN(Cc3nccs3)C2)CC1
-1

Also Cc1ccc(-n2c(N)c(C(=O)NCc3ccco3)sc2=S)cc1 ?
-1

Queued: Cc1ccc(C(=O)Nc2ccccc2Oc2ccccc2)cc1[N+](=O)[O-]
-1

Try this molecule next: CC(=O)NN1C(=O)c2ccc(Oc3ccc([N+](=O)[O-])cc3)cc2C1=O
-1

Follow-up item: Cc1ccc(OCC(O)Cn2c3ccccc3c3ccccc32)cc1 (configuration not stated)
1

Consider next the molecule CC1CCCN(C/C=C/c2ccccc2[N+](=O)[O-])C1 (configuration not stated) in the same way.
1

Subsequent entry: COc1ccc2[nH]cc(CCNc3ccnc(-c4ccoc4)n3)c2c1
1

Similarly, CCc1ccc2c(-c3cccc(Cl)c3)nc(=O)n(CC)c2n1 ?
-1

Param item: Cn1nnnc1SCc1ccccc1[N+](=O)[O-]
-1

Now give it for CCn1c(SCC(=O)N/N=C/C=C\c2ccccc2[N+](=O)[O-])nnc1-c1ccccc1 too.
-1
